Molecular target: JAK1 kinase activity on STAT3 in TF1 cells (Homo sapiens, UniProt P23458)
Sequence (P23458 whole entry): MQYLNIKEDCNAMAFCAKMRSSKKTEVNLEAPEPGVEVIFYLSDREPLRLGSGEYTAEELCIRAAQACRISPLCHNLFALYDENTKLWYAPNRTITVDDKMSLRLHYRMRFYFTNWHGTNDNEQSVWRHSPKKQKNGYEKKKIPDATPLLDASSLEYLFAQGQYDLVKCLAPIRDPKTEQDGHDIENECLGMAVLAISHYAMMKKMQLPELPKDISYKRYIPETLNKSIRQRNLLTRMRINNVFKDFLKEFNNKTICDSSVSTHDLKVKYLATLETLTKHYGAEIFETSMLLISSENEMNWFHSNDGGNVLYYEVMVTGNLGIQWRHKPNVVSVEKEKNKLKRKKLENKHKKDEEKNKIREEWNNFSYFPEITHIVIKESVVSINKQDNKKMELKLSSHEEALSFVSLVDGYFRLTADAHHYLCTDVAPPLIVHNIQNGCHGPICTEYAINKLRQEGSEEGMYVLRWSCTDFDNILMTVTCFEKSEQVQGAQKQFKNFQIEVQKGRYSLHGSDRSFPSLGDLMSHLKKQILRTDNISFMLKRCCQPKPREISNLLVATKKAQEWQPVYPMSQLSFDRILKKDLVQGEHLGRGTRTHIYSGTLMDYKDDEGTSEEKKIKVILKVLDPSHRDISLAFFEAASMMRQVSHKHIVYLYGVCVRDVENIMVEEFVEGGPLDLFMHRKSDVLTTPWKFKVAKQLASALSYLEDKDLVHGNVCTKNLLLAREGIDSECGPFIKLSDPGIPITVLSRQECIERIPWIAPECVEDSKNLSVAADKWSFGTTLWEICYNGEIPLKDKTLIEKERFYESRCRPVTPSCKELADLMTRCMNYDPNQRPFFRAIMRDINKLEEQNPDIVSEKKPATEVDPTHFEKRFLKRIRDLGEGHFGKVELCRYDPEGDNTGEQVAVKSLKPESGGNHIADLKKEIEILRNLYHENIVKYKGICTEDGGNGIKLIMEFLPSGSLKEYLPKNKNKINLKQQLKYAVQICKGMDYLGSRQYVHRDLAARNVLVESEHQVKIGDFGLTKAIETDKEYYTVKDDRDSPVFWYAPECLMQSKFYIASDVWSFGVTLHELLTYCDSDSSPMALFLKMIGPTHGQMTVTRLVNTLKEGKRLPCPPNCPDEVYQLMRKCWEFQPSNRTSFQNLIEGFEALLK
Test: pSTAT3 cell assay (MSD; TF1 cells, 30 ng/mL IL-6 stimulation)
Conditions: 30 ng/mL IL-6, 15 minutes
List of IC50 values.

Sample answers from the record:
INSERT INTO results (molecule, obs_value) VALUES
  ('C[C@@H]1CN(c2ccnn3cc(-c4ccc(OC(F)F)nc4)cc23)C(=O)[C@]1(C#N)C1CC1 [Example 176]', '5 to 10 µM'),
  ('C[C@@H]1CN(c2ccnn3cc(-c4ccc(F)nc4)cc23)C(=O)[C@]1(C#N)C1CC1 [Example 81]', '5 to 10 µM'),
  ('C[C@@H]1CN(c2ccnn3cc(-c4c[nH]c5ncccc45)cc23)C(=O)[C@]1(C#N)C1CC1 [Example 72]', '1 to 5 µM'),
  ('C[C@@H]1CN(c2ccnc3[nH]c(-c4cnn(C)c4)cc23)C(=O)[C@]1(C#N)C1CC1 [Example 1]', '< 0.1 µM'),
  ('C[C@@H]1CN(c2nc(-c3cnn(C(F)F)c3)cn3nccc23)C(=O)[C@]1(C#N)C1CC1 [Example 185]', '0.1 to 1 µM');

Q: What value of IC50 has been recorded for this entry: C[C@@H]1CN(c2nc(-c3cnn([C@H]4C[C@@](C)(C#N)C4)c3)cn3ncc(F)c23)C(=O)[C@]1(C#N)C1CC1 [Example 307]
Result: 0.1 to 1 µM

Q: What value of IC50 has been recorded for this entry: C[C@@H]1CN(c2nc(-c3cnn(C)c3)cn3ncc(F)c23)C(=O)[C@]1(C#N)C1CC1 [Example 187]
Result: 1 to 5 µM

Q: What value of IC50 has been recorded for this entry: C[C@@H]1CN(c2ccnn3cc(-c4ccc5cnn(C)c5c4)cc23)C(=O)[C@]1(C#N)C1CC1 [Example 68]
Result: 0.1 to 1 µM

Q: What value of IC50 has been recorded for this entry: C[C@@H]1CN(c2nc(-c3cnn([C@H]4C[C@@H](C#N)C4)c3)cn3ncc(F)c23)C(=O)[C@]1(C#N)C1CC1 [Example 292]
Result: 0.1 to 1 µM

Q: What value of IC50 has been recorded for this entry: C[C@@H]1CN(c2nc(-c3cnn(C4CCOCC4)c3)cn3ncc(F)c23)C(=O)[C@]1(C#N)C1CC1 [Example 218]
Result: 0.1 to 1 µM

Q: What value of IC50 has been recorded for this entry: Cc1cnn(-c2cc3c(N4C[C@@H](C)[C@@](C#N)(C5CC5)C4=O)ccnn3c2)c1 [Example 333]
Result: > 10 µM

Q: What value of IC50 has been recorded for this entry: Cc1nn(C)cc1-c1cn2nccc2c(N2C[C@@H](C)[C@@](C#N)(C3CC3)C2=O)n1 [Example 208]
Result: 1 to 5 µM

Q: What value of IC50 has been recorded for this entry: C[C@@H]1CN(c2ccnn3cc(-c4cnn(C56CC(C#N)(C5)C6)c4)cc23)C(=O)[C@]1(C#N)C1CC1 [Example 320]
Result: 1 to 5 µM

---

Target: human JAK1 kinase domain (JH1) (Homo sapiens, UniProt P23458)
Construct: recombinantly generated catalytic kinase (also known as JH1) domain of human JAK1, JAK2, JAK3 and TYK2
Assay: JH1 biochemical assay for JAK1 (ADP-Glo kinase assay, recombinant JH1 catalytic domain, JAK3-342 peptide, 35 μM ATP)
Conditions: JH1 kinase domain, ADP-Glo
pIC50: −log10 of the molar value. Counter-ions that a name gives are not always drawn.
quantity measured: pIC50

INSERT INTO measurements (compound, quantity_measured, obs_value) VALUES
  ('C[C@@H]1CN(c2ccnn3cc(-c4nnc5n4CCCC5)cc23)C(=O)[C@]1(C#N)C1CC1 [Example 105, trifluoroacetate]', 'pIC50', '< 5.00'),
  ('C[C@@H]1CN(c2ccnn3c(F)c(-c4cnn(C)c4)nc23)C(=O)[C@]1(C#N)C1CC1', 'pIC50', '< 5.00'),
  ('C[C@@H]1CN(c2ccnn3cc(-c4cc5ccccn5n4)cc23)C(=O)[C@]1(C#N)C1CC1 [Example 104, trifluoroacetate]', 'pIC50', '6.00 to 7.00'),
  ('C[C@@H]1CN(c2nc(-c3cnn(C4CCCC4)c3)cn3ncc(F)c23)C(=O)[C@]1(C#N)C1CC1', 'pIC50', '> 7.00'),
  ('Cn1cc(-c2cc3c(N4CC[C@](C#N)(C5COC5)C4=O)ccnn3c2)cn1 (single isomer, unassigned)', 'pIC50', '< 5.00');

Q: What value of pIC50 has been recorded for this entry: C[C@@H]1CN(c2ccnn3cc(-c4cc5n(n4)CCO5)cc23)C(=O)[C@]1(C#N)C1CC1 [Example 110, trifluoroacetate]
Result: 6.00 to 7.00

Q: What value of pIC50 has been recorded for this entry: `C[C@@H]1CN(c2ccnc3[nH]c(-c4cnn(C)c4)nc23)C(=O)[C@]1(C#N)C1CC1`
Result: 6.00 to 7.00

---

Target: human JAK1 kinase domain (JH1) (Homo sapiens)
Construct: recombinantly generated catalytic kinase (also known as JH1) domain of human JAK1, JAK2, JAK3 and TYK2
Test: JH1 biochemical assay for JAK1 (ADP-Glo kinase assay, recombinant JH1 catalytic domain, JAK3-342 peptide, 35 μM ATP)
Conditions: JH1 kinase domain, ADP-Glo
Method: Compounds of the disclosure were assessed for their ability to inhibit TYK2, JAK1, JAK2, and JAK3 activity. The inhibitory properties of the compounds of the disclosure described herein can be evidenced by testing in any one of the following protocols. The kinase activity of recombinantly generated catalytic kinase (also known as JH1) domain of human JAK1, JAK2, JAK3 and TYK2 were evaluated in a plate-based assay using the ADP-Glo™ Kinase Assay platform. […]
Where a name gives a salt, the structure may show the parent alone.
List of IC50 values.

Sample answers from the record:
INSERT INTO measurements (compound, obs_value) VALUES
  ('C[C@@H]1CN(c2nc(-c3ncccc3F)cn3nccc23)C(=O)[C@]1(C#N)C1CC1 [Example 212]', '1000 to 5000 nM'),
  ('Cc1cnc(-c2cc3c(N4C[C@@H](C)[C@@](C#N)(C5CC5)C4=O)ccnn3c2)s1 [Example 118, trifluoroacetate]', '100 to 1000 nM'),
  ('C[C@@H]1CN(c2ccnn3cc(-c4ccc5c(cnn5C)c4)cc23)C(=O)[C@]1(C#N)C1CC1 [Example 55]', '< 100 nM'),
  ('Cn1cc(-c2cc3c(N4CC[C@](C#N)(C5CC5)C4=O)ccnc3[nH]2)cn1 [Example 2]', '100 to 1000 nM');

Q: Missing value: IC50, human JAK1 kinase domain (JH1) (Homo sapiens), entry C[C@@H]1CN(c2ccnn3cc(-c4cn[nH]c4)cc23)C(=O)[C@]1(C#N)C1CC1 [Example 59, trifluoroacetate] . Fill in?
Result: < 100 nM

Q: Missing value: IC50, human JAK1 kinase domain (JH1) (Homo sapiens), entry C[C@@H]1CN(c2ccnn3cc(-c4cnn([C@H]5CC5(F)F)c4)cc23)C(=O)[C@]1(C#N)C1CC1 (single isomer, unassigned) [Example 156] . Fill in?
Result: 100 to 1000 nM

Q: Missing value: IC50, human JAK1 kinase domain (JH1) (Homo sapiens), entry COc1ncc(-c2cc3c(N4C[C@@H](C)[C@@](C#N)(C5CC5)C4=O)ccnn3c2)cn1 [Example 76] . Fill in?
Result: 100 to 1000 nM

Q: Missing value: IC50, human JAK1 kinase domain (JH1) (Homo sapiens), entry COc1ccc(-c2cc3c(N4C[C@@H](C)[C@@](C#N)(C5CC5)C4=O)ccnn3c2)cn1 [Example 48] . Fill in?
Result: 100 to 1000 nM

Q: Missing value: IC50, human JAK1 kinase domain (JH1) (Homo sapiens), entry C[C@H]1C[C@](C#N)(C2CC2)C(=O)N1c1ccnn2cc(-c3cnn(C)c3)cc12 [Example 30] . Fill in?
Result: > 10000 nM

---

Target: human JAK1 kinase domain (JH1) (Homo sapiens)
Construct: recombinantly generated catalytic kinase (also known as JH1) domain of human JAK1, JAK2, JAK3 and TYK2
Test: JH1 biochemical assay for JAK1 (ADP-Glo kinase assay, recombinant JH1 catalytic domain, JAK3-342 peptide, 35 μM ATP)
Details: JAK1 JH1, ADP-Glo
pIC50: −log10 of the molar value. Where a name gives a salt, the structure may show the parent alone.
quantity measured: pIC50

Sample answers from the record:
INSERT INTO results (compound, quantity_measured, obs_value) VALUES
  ('C[C@@H]1CN(c2ccnc3cc(-c4cnn(C)c4)nn23)C(=O)[C@]1(C#N)C1CC1', 'pIC50', '5.00 to 5.30'),
  ('C[C@@H]1CN(c2nc(-c3cnn(C4COC4)c3)cn3nccc23)C(=O)[C@]1(C#N)C1CC1', 'pIC50', '> 7.00'),
  ('C[C@@H]1CN(c2nc(-c3ccnc(F)c3)cn3nccc23)C(=O)[C@]1(C#N)C1CC1 [Example 237, trifluoroacetate]', 'pIC50', '> 7.00'),
  ('C[C@@H]1CN(c2nc(-c3cnn(-c4ccccn4)c3)cn3nccc23)C(=O)[C@]1(C#N)C1CC1', 'pIC50', '> 7.00');

Q: Missing value: pIC50, human JAK1 kinase domain (JH1) (Homo sapiens), entry Cc1ccc(-c2cn3nccc3c(N3C[C@@H](C)[C@@](C#N)(C4CC4)C3=O)n2)cn1 [Example 233, trifluoroacetate] . Fill in?
Result: > 7.00

Q: Missing value: pIC50, human JAK1 kinase domain (JH1) (Homo sapiens), entry `C[C@@H]1CN(c2nc(-c3cnn(C4CCCCC4)c3)cn3ncc(F)c23)C(=O)[C@]1(C#N)C1CC1` . Fill in?
Result: > 7.00

Q: Missing value: pIC50, human JAK1 kinase domain (JH1) (Homo sapiens), entry `C[C@@H]1CN(c2nc(-c3cnn(CC4(C#N)CC4)c3)cn3ncc(F)c23)C(=O)[C@]1(C#N)C1CC1` . Fill in?
Result: > 7.00

Q: Missing value: pIC50, human JAK1 kinase domain (JH1) (Homo sapiens), entry `COc1ccc(-c2cn3nccc3c(N3C[C@@H](C)[C@@](C#N)(C4CC4)C3=O)n2)cn1` . Fill in?
Result: 6.00 to 7.00

Q: Missing value: pIC50, human JAK1 kinase domain (JH1) (Homo sapiens), entry `CCn1cc(-n2nc(N3C[C@@H](C)[C@@](C#N)(C4CC4)C3=O)c3ccncc32)cn1` . Fill in?
Result: 6.00 to 7.00

Q: Missing value: pIC50, human JAK1 kinase domain (JH1) (Homo sapiens), entry C[C@@H]1CN(c2nc(-c3ccc4nccn4c3)cn3nccc23)C(=O)[C@]1(C#N)C1CC1 [Example 263, trifluoroacetate] . Fill in?
Result: > 7.00

Q: Missing value: pIC50, human JAK1 kinase domain (JH1) (Homo sapiens), entry `C[C@@H]1CN(c2nc(-c3cnn([C@H]4C[C@H](C#N)C4)c3)cn3ncc(F)c23)C(=O)[C@]1(C#N)C1CC1` . Fill in?
Result: > 7.00

Q: Missing value: pIC50, human JAK1 kinase domain (JH1) (Homo sapiens), entry `C[C@@H]1CN(c2nc(-c3cccnc3)cn3ncc(F)c23)C(=O)[C@]1(C#N)C1CC1` . Fill in?
Result: 5.30 to 6.00

Q: Missing value: pIC50, human JAK1 kinase domain (JH1) (Homo sapiens), entry CNC(=O)c1cc(-c2cn3nccc3c(N3C[C@@H](C)[C@@](C#N)(C4CC4)C3=O)n2)ccn1 [Example 252, trifluoroacetate] . Fill in?
Result: 6.00 to 7.00

Q: Missing value: pIC50, human JAK1 kinase domain (JH1) (Homo sapiens), entry `C[C@@H]1CN(c2cc(-c3cnn(C)c3)cn3nccc23)C(=O)[C@]1(C#N)C1CC1` . Fill in?
Result: 6.00 to 7.00
